test system: Staphylococcus sp.; test: In vitro antibacterial evaluation: minimum inhibitory concentration (MIC), broth dilution method; type: cell-based; details: strain GC 4545
Overview of recorded MIC Staphylococcus aureus (GC 4545) for various compounds
State just the number; it will be interpreted in µg/mL.

A selection of reference data follows.
INSERT INTO results (compound, system_tested, attribute_measured, numeric_result) VALUES
  ('CC(c1ccccc1)C1NC(=O)CNC(=O)C(CO)NC(=O)C(C(O)C2CNC(=N)N2C2OC(CO)C(O)C(O)C2O)NC(=O)C(C(O)C2CNC(=N)N2)NC(=O)C(Cc2ccc(OC3OC(CO)C(OC4OC5COC(c6cccs6)OC5C(O)C4O)C(O)C3O)cc2)NC1=O (centres unmarked)', 'Staphylococcus sp.', 'MIC Staphylococcus aureus (GC 4545)', 2),
  ('CC(c1ccccc1)C1NC(=O)CNC(=O)C(CO)NC(=O)C(C(O)C2CNC(=N)N2C2OC(CO)C(O)C(O)C2O)NC(=O)C(C(O)C2CNC(=N)N2)NC(=O)C(Cc2ccc(OC3OC(CO)C(OC4OC5COC6(CCCCC6C)OC5C(O)C4O)C(O)C3O)cc2)NC1=O (centres unmarked)', 'Staphylococcus sp.', 'MIC Staphylococcus aureus (GC 4545)', 4),
  ('Cc1ccc(CC2OCC3OC(OC4C(CO)OC(Oc5ccc(CC6NC(=O)C(C(C)c7ccccc7)NC(=O)CNC(=O)C(CO)NC(=O)C(C(O)C7CNC(=N)N7C7OC(CO)C(O)C(O)C7O)NC(=O)C(C(O)C7CNC(=N)N7)NC6=O)cc5)C(O)C4O)C(O)C(O)C3O2)cc1 (centres unmarked)', 'Staphylococcus sp.', 'MIC Staphylococcus aureus (GC 4545)', 1),
  ('CC(c1ccccc1)C1NC(=O)CNC(=O)C(CO)NC(=O)C(C(O)C2CNC(=N)N2C2OC(CO)C(O)C(O)C2O)NC(=O)C(C(O)C2CNC(=N)N2)NC(=O)C(Cc2ccc(OC3OC(CO)C(OC4OC5COC6(CCC(C(C)(C)C)CC6)OC5C(O)C4O)C(O)C3O)cc2)NC1=O (centres unmarked)', 'Staphylococcus sp.', 'MIC Staphylococcus aureus (GC 4545)', 4),
  ('CC(c1ccccc1)C1NC(=O)CNC(=O)C(CO)NC(=O)C(C(O)C2CNC(=N)N2C2OC(CO)C(O)C(O)C2O)NC(=O)C(C(O)C2CNC(=N)N2)NC(=O)C(Cc2ccc(OC3OC(CO)C(OC4OC5COC(C6CCCC6)OC5C(O)C4O)C(O)C3O)cc2)NC1=O (centres unmarked)', 'Staphylococcus sp.', 'MIC Staphylococcus aureus (GC 4545)', 1),
  ('CC(c1ccccc1)C1NC(=O)CNC(=O)C(CO)NC(=O)C(C(O)C2CNC(=N)N2C2OC(CO)C(O)C(O)C2O)NC(=O)C(C(O)C2CNC(=N)N2)NC(=O)C(Cc2ccc(OC3OC(CO)C(OC4OC5COC(C6CC=CCC6)OC5C(O)C4O)C(O)C3O)cc2)NC1=O (centres unmarked)', 'Staphylococcus sp.', 'MIC Staphylococcus aureus (GC 4545)', 0.5),
  ('Cc1ccc(Oc2cccc(C3OCC4OC(OC5C(CO)OC(Oc6ccc(CC7NC(=O)C(C(C)c8ccccc8)NC(=O)CNC(=O)C(CO)NC(=O)C(C(O)C8CNC(=N)N8C8OC(CO)C(O)C(O)C8O)NC(=O)C(C(O)C8CNC(=N)N8)NC7=O)cc6I)C(O)C5O)C(O)C(O)C4O3)c2)cc1 (centres unmarked)', 'Staphylococcus sp.', 'MIC Staphylococcus aureus (GC 4545)', 32);

Which MIC Staphylococcus aureus (GC 4545) value belongs to CC(c1ccc(Cl)cc1)C1NC(=O)CNC(=O)C(CO)NC(=O)C(C(O)C2CNC(=N)N2C2OC(CO)C(O)C(O)C2O)NC(=O)C(C(O)C2CNC(=N)N2)NC(=O)C(Cc2ccc(OC3OC(CO)C(OC4OC5COC(c6ccccc6)OC5C(O)C4O)C(O)C3O)cc2)NC1=O (centres unmarked) ?
0.5

Reference source for all entries: patent US8247211B2
